Data provenance is patent EP0054974A1.

Reported values: MIC for Trichophyton rubrum, one per item.
observation-type: MIC

1. CN1CCN(CC(O)(Cn2ccnc2)c2ccc(Cl)cc2Cl)CC1 (stereo not shown) [the 5th table, row 5] :: 40 to 100 µg/mL
2. OC(CNCC1CCCO1)(Cn1ccnc1)c1ccc(Cl)cc1Cl (stereo not shown) [the 5th table, row 4] :: 40 to 100 µg/mL
3. OCCNCC(O)(Cn1ccnc1)c1ccc(Cl)cc1Cl (stereo not shown) [the 5th table, row 1] :: 40 to 100 µg/mL
4. OC(CN1CCN(c2ccccc2)CC1)(Cn1ccnc1)c1ccc(Cl)cc1Cl (stereo not shown) [the 5th table, row 6] :: 0.6 µg/mL

====

Candida albicans Ohta measurements of MIC, listed per entry.
observation-type: MIC

1) OC(CNCCN1CCOCC1)(Cn1ccnc1)c1ccc(Cl)cc1Cl (centres unmarked) [the 5th table, row 2] :: 40 to 100 µg/mL
2) C=CCOCC(O)(Cn1ccnc1)c1ccc(Cl)cc1Cl (centres unmarked) [CH2=CH-CH2-O-] :: 40 to 100 µg/mL
3) OCCNCC(O)(Cn1ccnc1)c1ccc(Cl)cc1Cl (centres unmarked) [the 5th table, row 1] :: 40 to 100 µg/mL
4) OC(CSc1ccncc1)(Cn1ccnc1)c1ccc(Cl)cc1Cl (centres unmarked) :: 40 to 100 µg/mL
5) OC(CNCC1CCCO1)(Cn1ccnc1)c1ccc(Cl)cc1Cl (centres unmarked) [the 5th table, row 4] :: 40 to 100 µg/mL

====

# Test system: Candida albicans Ohta
# protocol: Antifungal activity in vitro, minimum inhibitory concentration on Sabouraud's agar medium
# Format: cell-based
# From the text: The antifungal activity of some representatives of the imidazolylpropanol compounds (I) in in vitro test is as shown below.
Measured MIC, listed per entry for reference.
observation-type: MIC (µg/mL)

1) OC(CN1CCN(c2ccccc2)CC1)(Cn1ccnc1)c1ccc(Cl)cc1Cl (centres unmarked) :: 20
2) OC(COCCSc1ccccc1)(Cn1ccnc1)c1ccc(Cl)cc1Cl (centres unmarked) :: 20

====

What follows is a collection of MIC values obtained with Trichophyton rubrum.
observation-type: MIC (µg/mL)

1) COc1ccc(SCC(O)(Cn2ccnc2)c2ccc(Cl)cc2Cl)cc1 (centres unmarked) :: 20
2) CC(C)CCOCC(O)(Cn1ccnc1)c1ccc(Cl)cc1Cl (centres unmarked) :: 5
3) C=CCOCC(O)(Cn1ccnc1)c1ccc(Cl)cc1Cl (centres unmarked) :: 10

====

Measured MIC, listed per entry.
# Tested on: Candida albicans Ohta
# protocol: Antifungal activity in vitro, minimum inhibitory concentration on Sabouraud's agar medium
# Assay type: cell-based
observation-type: MIC

1) OC(CNCc1ccco1)(Cn1ccnc1)c1ccc(Cl)cc1Cl (stereo not drawn) [the 5th table, row 3] :: 40 to 100 µg/mL
2) OC(CN1CCN(Cc2ccccc2)CC1)(Cn1ccnc1)c1ccc(Cl)cc1Cl (stereo not drawn) [the 5th table, row 7] :: 40 to 100 µg/mL
3) OC(CNCc1ccccc1)(Cn1ccnc1)c1ccc(Cl)cc1Cl (stereo not drawn) [the 5th table, row 0] :: 40 to 100 µg/mL
